Reference for the values: patent US5250517A

experimentalSystem: UniProt P00797
Sequence (P00797 67-406): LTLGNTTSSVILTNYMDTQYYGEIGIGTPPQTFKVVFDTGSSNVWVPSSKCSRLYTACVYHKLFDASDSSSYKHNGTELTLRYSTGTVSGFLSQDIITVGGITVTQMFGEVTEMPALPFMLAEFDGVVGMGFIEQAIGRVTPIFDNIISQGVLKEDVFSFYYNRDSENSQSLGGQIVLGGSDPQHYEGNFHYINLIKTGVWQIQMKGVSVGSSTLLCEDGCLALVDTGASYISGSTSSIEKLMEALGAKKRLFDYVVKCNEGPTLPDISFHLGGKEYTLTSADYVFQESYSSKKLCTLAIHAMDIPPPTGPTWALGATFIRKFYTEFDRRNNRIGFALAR
Where a SMILES comes first, the peptide text is derived from it. [ ]: non-standard residue; d: D form. The star is where a group is joined. X1 = C=C[C@@H](CC(O)[C@H](CC1CCCCC1)N*)C(C)C; Boc = CC(C)(C)OC(=O)*
assayMetric: pIC50
Answers are plain numbers, as −log10 of the molar value.

Record excerpt, results attached:
compound | obsValue
C=C[C@@H](C[C@H](O)[C@H](CC1CCCCC1)NC(=O)[C@H](Cc1c[nH]cn1)NC(=O)[C@H](Cc1ccccc1)NC(=O)N1CCOCC1)C(C)C [M] | 7.68
C=C[C@@H](C[C@H](O)[C@H](CC1CCCCC1)NC(=O)[C@H](Cc1c[nH]cn1)NC(=O)[C@@H](CC(=O)NC(C)(CO)CO)Cc1ccccc1)C(C)C [K] | 7.77

Below: the item to evaluate.
Query block: Quick check: pIC50 of C=C[C@@H](CC(O)[C@H](CC1CCCCC1)NC(=O)[C@H](Cc1c[nH]cn1)NC(=O)[C@H](Cc1ccccc1)NC(=O)[C@@H]1CCCN1C(=O)[C@H]1CCCN1C(=O)OC(C)(C)C)C(C)C (stereo partly drawn) [R] (Boc-[dP]PFH-X1) ?
Result block: 8.77
